- Test system: HEK-293T
- test-name: Multiplex assay against HEK293T
- Type: toxicity, cell-based
- assay-setup: human, 12 h, 1 µM, compound concentration 1 uM, replicate 1
Reported values of Population Tubulin-Different-Phenotype (%) for individual entries
measured-quantity: Population Tubulin-Different-Phenotype (%)

| molecule | subject-of-test | recorded-result |
| --- | --- | --- |
| CC(C)(C)c1ccc(S(=O)(=O)Nc2ccc(Cl)cc2C(=O)c2cc[n+]([O-])cc2)cc1 | HEK-293T | 21 |
| CSCC[C@H](NC=O)C(=O)N[C@@H](CC(C)C)C(=O)N[C@@H](Cc1ccccc1)C(=O)O | HEK-293T | 23 |
| Cc1ccccc1C(=O)Nc1ccc(C(=O)N2CCCC(N(C)C)c3ccccc32)cc1.Cl (centres undefined) | HEK-293T | 33 |
| CNC[C@H](O)c1ccc(O)c(O)c1 [EPINEPHRINE] | HEK-293T | 26 |
| O=C1COc2nccc(-c3ccccc3F)c2CN1Cc1cc(C(F)(F)F)cc(C(F)(F)F)c1 | HEK-293T | 27 |
| O=S(=O)(c1ccccc1)c1cnc2c(N3CCNCC3)cccc2c1 [INTEPIRDINE] | HEK-293T | 43 |
| C[C@H](NC(=O)c1c(C(F)F)nn(C)c1Oc1cccc(C(F)(F)F)c1)c1ccc(C(=O)O)cc1 | HEK-293T | 28 |
| Cc1ccc(F)cc1C(=O)Nc1ccc(C(=O)N2Cc3cccn3Cc3ccccc32)c(Cl)c1 | HEK-293T | 38 |
| CN(C)CCCc1cc(C(=O)Nc2ccc(-c3ccncc3)cc2)ccc1O.Cl.Cl | HEK-293T | 37 |
| Cc1ccc(-c2ccc(F)cc2COc2ccc(CCC(=O)O)cc2)cc1 | HEK-293T | 18 |
| CN1CCN2c3ncccc3Cc3ccccc3C2C1 (centres undefined) | HEK-293T | 22 |
| O=C(O)c1cc2ccccc2c(Cc2c(O)c(C(=O)O)cc3ccccc23)c1O | HEK-293T | 23 |
| Cc1ccc(C(C)(O)c2nc3ccccc3s2)c(C)c1 (centres undefined) | HEK-293T | 30 |
| CCOc1c2c(c(OCC)c3ncccc13)CN(c1ccc(CS(=O)(=O)NC(=O)Cc3ccccc3OC)cc1C)C2=O | HEK-293T | 31 |
| N[C@@]1(C(=O)O)CO[C@H]2[C@H](C(=O)O)[C@H]21 | HEK-293T | 26 |
| CSc1ccccc1N1CCN(CCCCCC(=O)NC2CCCc3ccccc32)CC1.Cl (centres undefined) | HEK-293T | 59 |
| Cl.Clc1ccc2nsnc2c1NC1=NCCN1 [TIZANIDINE HYDROCHLORIDE] | HEK-293T | 26 |
| Cc1nc2ccc(Oc3ccc(F)cc3)cc2c(=O)n1C[C@H]1CCCN(C(C)C)C1.Cl | HEK-293T | 42 |
| C[C@H]1[C@H]2CC[C@H]3[C@@H]4CC=C5C[C@@H](N(C)C)CC[C@]5(C)[C@H]4CC[C@]23CN1C | HEK-293T | 26 |
| COc1ccccc1N1CCN(CCCCNC(=O)c2ccc3ccccc3c2)CC1.Cl | HEK-293T | 41 |
| CC[C@H]1OC(=O)[C@H](C)[C@@H](O[C@H]2C[C@@](C)(OC)[C@@H](O)[C@H](C)O2)[C@H](C)[C@@H](O[C@@H]2O[C@H](C)C[C@H](N(C)C)[C@H]2O)[C@@]2(C)CC(C)=C(O2)[C@H](C)[C@@H](O)[C@]1(C)O | HEK-293T | 41 |
| COc1c(C)cc(NC(=O)c2nn(Cc3ccc(F)cc3)c3c2CN(C(=O)c2ccc[nH]2)C[C@]3(C)C(N)=O)cc1C | HEK-293T | 36 |
| CCCC(CCC)C(=O)O | HEK-293T | 20 |
| C[C@@H]1C[C@H]2[C@@H]3CCC4=CC(=O)C=C[C@]4(C)[C@@]3(F)[C@@H](O)C[C@]2(C)[C@@]1(O)C(=O)CO | HEK-293T | 24 |
| O=C(NCC(=O)N1CC[C@H](N[C@H]2CC[C@@](O)(c3ccc(-c4ncccn4)cn3)CC2)C1)c1cccc(C(F)(F)F)c1 | HEK-293T | 32 |
| CN1CCN(c2nc3cc(C(F)(F)F)ccc3n3cccc23)CC1.O=C(O)/C=C\C(=O)O.O=C(O)/C=C\C(=O)O | HEK-293T | 33 |
| CN(C)c1ccnc2sc3c(=O)n(N4CCCCCC4)cnc3c12 | HEK-293T | 43 |
| O=C(O)Cc1ccccc1Nc1c(Cl)cccc1Cl | HEK-293T | 32 |
| N#Cc1c(N)nc(SCc2csc(-c3ccc(Cl)cc3)n2)c(C#N)c1-c1ccc(OCCO)cc1 | HEK-293T | 44 |

From: ChEMBL document CHEMBL5058577
